procedure-text: Pharmacokinetics following intravenous and oral administration in SD rats
Type: in vivo
recorded-conditions: male, SD, rat, plasma, iv, 1 mg/kg, IV 1 mg/kg, Mean of 3 rats, read-out: AUC(0-t)
quantity-kind: AUC(0-t) (ng·h/mL)
Number only, in ng·h/mL; omit the unit.

## Input Please look up its AUC(0-t): CCc1nc2ccccn2c1C(=O)c1cc(Br)c(O)c(C#N)c1
## Output 8900

====

procedure-text: Pharmacokinetics following intravenous and oral administration in SD rats
Format: in vivo
recorded-conditions: male, SD, rat, plasma, iv, 1 mg/kg, IV 1 mg/kg, Mean of 3 rats
quantity-kind: half-life

## Input Please look up its half-life: CCc1nc2ccccn2c1C(=O)c1cc(Br)c(O)c(C#N)c1
## Output 5.8 h

====

procedure-text: Pharmacokinetics following intravenous and oral administration in SD rats
Assay type: in vivo
recorded-conditions: male, SD, rat, plasma, po, 10 mg/kg, PO 10 mg/kg, Mean of 3 rats, read-out: Tmax
quantity-kind: Tmax (h)
Number only, in h; omit the unit.

## Input Please look up its Tmax: CCc1nc2ccccn2c1C(=O)c1cc(Br)c(O)c(C#N)c1
## Output 3.3

====

procedure-text: Pharmacokinetics following intravenous and oral administration in SD rats
Type: in vivo
recorded-conditions: male, SD, rat, plasma, po, 10 mg/kg, PO 10 mg/kg, individual rats 101-103, read-out: Cmax
Description: Dose formulation preparation for PO: Weight out the required amount of compound 74. Added approximately 70% of 0.5% CMC-Na with stirring, vortexing and sonication to mix well until visually well suspension. Then added the remaining vehicle to target total volume and vortex-mix. Dose formulation preparation for IV: Weight out the required amount of compound 74. […]
quantity-kind: Cmax
Mention the unit after the number when you answer.

## Input Please look up its Cmax: CCc1nc2ccccn2c1C(=O)c1cc(Br)c(O)c(C#N)c1
## Output 9210 ng/mL

====

procedure-text: Pharmacokinetics following intravenous and oral administration in SD rats
Assay type: in vivo
recorded-conditions: male, SD, rat, plasma, iv, 1 mg/kg, IV 1 mg/kg, Mean of 3 rats, read-out: Vz
quantity-kind: Vd (L/kg)
Number only, in L/kg; omit the unit.

## Input Please look up its Vd: CCc1nc2ccccn2c1C(=O)c1cc(Br)c(O)c(C#N)c1
## Output 0.904

====

procedure-text: Pharmacokinetics following intravenous and oral administration in SD rats
Type: in vivo
recorded-conditions: male, SD, rat, plasma, po, 10 mg/kg, PO 10 mg/kg, individual rats 101-103
quantity-kind: half-life (h)
Number only, in h; omit the unit.

## Input Please look up its half-life: CCc1nc2ccccn2c1C(=O)c1cc(Br)c(O)c(C#N)c1
## Output 2.9

====

procedure-text: Pharmacokinetics following intravenous and oral administration in SD rats
Assay type: in vivo
recorded-conditions: male, SD, rat, plasma, iv, 1 mg/kg, IV 1 mg/kg, Mean of 3 rats, read-out: Tmax
quantity-kind: Tmax (min)
Number only, in min; omit the unit.

## Input Please look up its Tmax: CCc1nc2ccccn2c1C(=O)c1cc(Br)c(O)c(C#N)c1
## Output 6

====

procedure-text: Pharmacokinetics following intravenous and oral administration in SD rats
Format: in vivo
recorded-conditions: male, SD, rat, plasma, po, 10 mg/kg, PO 10 mg/kg, Mean of 3 rats
quantity-kind: half-life
Mention the unit after the number when you answer.

## Input Please look up its half-life: CCc1nc2ccccn2c1C(=O)c1cc(Br)c(O)c(C#N)c1 [Compound 74]
## Output 2.9 h

====

Test system: human normal liver cell line L-02
procedure-text: Cytotoxicity test on human normal liver cell line L-02 (Alamar Blue)
Type: cell-based
recorded-conditions: L02, L-02 cells, 120 h incubation, cell viability, read-out: half inhibitory concentration (IC50) against L-02
pIC50: −log10 of the molar value.
Can you tell me pIC50 for the items I'm about to list?

## Input Lab note: need pIC50 with human normal liver cell line L-02 for entry CCc1oc2ccccc2c1C(=O)c1cc(Br)c(O)c(Br)c1 [BBR, reference compound] , please look it up.
## Output 4.40

## Input Next: CCc1nc2cc(C)c(Br)cn2c1C(=O)c1cc(Br)c(O)c(Br)c1
## Output < 4.00

## Input Next: CCc1nc2ccccn2c1C(=O)c1cc(Br)c(O)c(Br)c1
## Output < 4.00

## Input Next: CCc1nc2ccccn2c1C(=O)c1cc(I)c(O)c(C#N)c1
## Output < 4.00

## Input Next: CCc1nc2ccc(OC)cn2c1C(=O)c1cc(Br)c(O)c(Br)c1
## Output < 4.00

## Input Next: CCc1nc2ccc(F)cn2c1C(=O)c1cc(F)c(O)c(I)c1
## Output < 4.00

## Input Next: CCc1nc2ccc(F)cn2c1C(=O)c1cc(Cl)c(O)c(Br)c1
## Output < 4.00

## Input Next: CCc1nc2ccc(O)cn2c1C(=O)c1cc(Br)c(O)c(Br)c1
## Output < 4.00

## Input Next: CCc1nc2ccccn2c1C(=O)c1cc(Br)c(O)c(C#N)c1
## Output < 4.00

## Input Next: CCc1nc2ccccn2c1C(=O)c1cc(I)c(O)c(I)c1
## Output < 4.00

## Input Next: CCc1nc2ccccn2c1C(=O)c1cc(Cl)c(O)c(I)c1
## Output < 4.00

## Input Next: CCc1nc2ccccn2c1C(=O)c1cc(Cl)c(O)c(Br)c1
## Output < 4.00

====

procedure-text: Pharmacokinetics following intravenous and oral administration in SD rats
Format: in vivo
recorded-conditions: male, SD, rat, plasma, po, 10 mg/kg, PO 10 mg/kg, individual rats 101-103, read-out: AUC(0-t)
quantity-kind: AUC(0-t) (µg·h/mL)
Number only, in µg·h/mL; omit the unit.

## Input Please look up its AUC(0-t): CCc1nc2ccccn2c1C(=O)c1cc(Br)c(O)c(C#N)c1
## Output 89.9

Just for reference, patent US10399971B2 is where these values come from.
